experimental target: Human TYK2 (Homo sapiens (Human))
Sequence (P29597 whole entry): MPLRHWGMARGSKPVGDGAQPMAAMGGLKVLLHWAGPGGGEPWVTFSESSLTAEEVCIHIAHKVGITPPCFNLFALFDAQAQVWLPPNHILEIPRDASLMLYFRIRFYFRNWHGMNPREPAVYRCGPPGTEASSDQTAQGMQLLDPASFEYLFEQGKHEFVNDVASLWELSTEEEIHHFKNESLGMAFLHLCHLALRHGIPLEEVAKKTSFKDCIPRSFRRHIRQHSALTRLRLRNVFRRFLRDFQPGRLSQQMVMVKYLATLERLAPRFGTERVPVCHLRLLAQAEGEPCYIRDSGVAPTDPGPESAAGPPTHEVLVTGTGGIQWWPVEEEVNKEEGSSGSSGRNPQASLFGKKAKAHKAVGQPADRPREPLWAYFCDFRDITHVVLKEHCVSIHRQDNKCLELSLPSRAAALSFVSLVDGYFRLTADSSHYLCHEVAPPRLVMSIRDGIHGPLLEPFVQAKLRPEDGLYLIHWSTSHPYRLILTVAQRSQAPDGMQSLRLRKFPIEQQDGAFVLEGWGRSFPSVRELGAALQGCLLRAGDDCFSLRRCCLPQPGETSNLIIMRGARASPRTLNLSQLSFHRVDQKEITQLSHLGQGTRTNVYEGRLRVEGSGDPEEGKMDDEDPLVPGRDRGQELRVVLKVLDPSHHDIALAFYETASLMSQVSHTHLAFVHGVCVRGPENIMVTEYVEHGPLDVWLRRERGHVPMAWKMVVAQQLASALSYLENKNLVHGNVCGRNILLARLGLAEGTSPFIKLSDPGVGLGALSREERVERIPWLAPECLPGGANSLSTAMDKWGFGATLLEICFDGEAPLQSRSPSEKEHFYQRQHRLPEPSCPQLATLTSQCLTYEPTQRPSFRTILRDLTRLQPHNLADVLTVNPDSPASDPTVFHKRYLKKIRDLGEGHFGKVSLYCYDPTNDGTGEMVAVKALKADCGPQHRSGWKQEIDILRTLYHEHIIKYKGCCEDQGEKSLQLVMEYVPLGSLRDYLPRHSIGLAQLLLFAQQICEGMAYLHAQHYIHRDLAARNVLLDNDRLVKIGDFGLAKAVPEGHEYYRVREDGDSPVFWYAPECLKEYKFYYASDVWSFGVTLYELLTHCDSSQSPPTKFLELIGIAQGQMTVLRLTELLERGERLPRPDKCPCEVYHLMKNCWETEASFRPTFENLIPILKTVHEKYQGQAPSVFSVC
test description: In vitro kinase inhibition test, TYK2 (33P-ATP filter scintillation)
Type: biochemical
study conditions: compound at 1 uM; read-out: TYK2 kinase-phosphorylation inhibitory level (% inhibition)

molecule	inhibition at 1 µM, %
CN(c1ncnc2[nH]ccc12)C1CN(C(=O)CCN)CC12CC2 (stereo not drawn)	-4
CC(C)C(=O)N1C[C@H](N(C)c2ncnc3[nH]ccc23)C2(CC2)C1	49
CN(c1ncnc2[nH]ccc12)[C@H]1CN(S(=O)(=O)c2ccc([N+](=O)[O-])cc2)CC12CC2	88

----------
experimental target: Human TYK2 (Homo sapiens (Human))
test description: In vitro kinase inhibition test, TYK2 (33P-ATP filter scintillation)
Type: biochemical
study conditions: compound at 1 uM; read-out: TYK2 kinase-phosphorylation inhibitory level (% inhibition)
Measured inhibition at 1 µM, listed per entry for reference.

molecule	measurement unit	inhibition at 1 µM
CN(c1ncnc2[nH]ccc12)[C@H]1CN(C(=O)c2ccco2)CC12CC2 [Example 11]	%	61
CNC(=O)CC(=O)N1C[C@@H](N(C)c2ncnc3[nH]ccc23)C2(CC2)C1 [Example 67]	%	-4
CNC(=O)CC(=O)N1CC(N(C)c2ncnc3[nH]ccc23)C2(CC2)C1 (stereo not drawn) [Example 57]	%	11
CN(c1ncnc2[nH]ccc12)[C@H]1CN(S(=O)(=O)c2ccccc2)CC12CC2 [Example 36]	%	91
CN(c1ncnc2[nH]ccc12)[C@H]1CN(S(=O)(=O)c2ccccc2[N+](=O)[O-])CC12CC2 [Example 43]	%	78
CN(c1ncnc2[nH]ccc12)[C@H]1CN(C(=O)Nc2cc(Cl)ccc2Cl)CC12CC2 [Example 27]	%	27
